system: human P2Y12 receptor (Homo sapiens)
Construct: expressed in transfected cells; host or cells: CHO cells
Sequence (Q9H244 whole entry): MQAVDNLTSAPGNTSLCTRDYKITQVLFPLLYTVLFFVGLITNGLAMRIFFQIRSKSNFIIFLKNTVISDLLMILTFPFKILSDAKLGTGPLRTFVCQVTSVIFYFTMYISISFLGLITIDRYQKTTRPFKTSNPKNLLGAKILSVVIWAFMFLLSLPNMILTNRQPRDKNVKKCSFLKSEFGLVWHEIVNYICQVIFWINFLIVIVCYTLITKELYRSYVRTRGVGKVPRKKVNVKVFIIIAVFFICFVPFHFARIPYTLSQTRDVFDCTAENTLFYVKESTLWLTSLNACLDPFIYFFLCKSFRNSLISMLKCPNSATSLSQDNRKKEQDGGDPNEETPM
run_description: P2Y12 receptor binding assay
experimental_conditions: CHO cells with recombinant expression of the human P2Y12 receptor; tritium-labeled 2-methyl-S-ADP; RT, 2 hours
Experimental: P2Y12 Receptor Binding Assay Chinese Hamster Ovary (CHO) cells with recombinant expression of the human P2Y12 receptor were cultured in 24 well cell-culture plates. Cells were washed three times with binding buffer (50 mM Tris pH 7.4, 100 mM NaCl, 1 mM EDTA, 0.5% BSA). […]
parameter_measured: IC50 (nM)

Known results for molecules:
structure_smiles_string	IC50, nM
CCCCOC(=O)N1CCN(C(=O)[C@H](CCC(=O)O)NC(=O)c2nc(-c3ccccc3)sc2N2CC[C@H](OC)C2)CC1	3
CCCCOC(=O)N1CCN(C(=O)[C@H](CP(=O)(OCC)OCC)NC(=O)c2nc(-c3ccccc3)sc2N2CCN(C)CC2)CC1	4180
CCCCOC(=O)N1CCN(C(=O)[C@H](CP(=O)(O)O)NC(=O)c2nc(-c3ccccc3)sc2-c2ccccc2)CC1	13
CCCCOC(=O)N1CCN(C(=O)[C@H](CO)NC(=O)c2nc(-c3ccccc3)sc2/C=C/C(=O)O)CC1	35
CCCCOC(=O)N1CCN(C(=O)CNC(=O)c2nc(-c3ccccc3)c(CCC(=O)OC)s2)CC1	547
CCCCOC(=O)N1CCN(C(=O)[C@H](CP(=O)(N[C@@H](C)C(=O)OCC)N[C@@H](C)C(=O)OCC)NC(=O)c2csc(-c3ccccc3)n2)CC1	1220

(a) CCCCOC(=O)N1CCN(C(=O)[C@H](CCC(=O)O)NC(=O)c2nc(-c3ccccc3)sc2Br)CC1
(b) CCCCOC(=O)N1CCN(C(=O)[C@H](CCC(=O)O)NC(=O)c2nc(-c3ccccc3)sc2/C=C/COC)CC1
Sorting ascending by IC50, which comes first: a or b ? Mark your answer with the label of the selected entry.
b
(b: 19 nM, a: 41 nM)

(1) CCCCOC(=O)N1CCN(C(=O)CNC(=O)c2nc(-c3ccccc3)sc2C=CCOC)CC1
(2) CCCCOC(=O)N1CCN(C(=O)[C@H](CCC(=O)O)NC(=O)c2csc(-c3cccc(OC)c3)n2)CC1
(3) CCCCOC(=O)N1CCN(C(=O)CNC(=O)c2nc(-c3ccccc3)c(-c3ccccc3)s2)CC1
(4) CCCCOC(=O)N1CCN(C(=O)[C@H](CCC(=O)O)NC(=O)c2nc(-c3ccccc3)sc2N2CCCC2)CC1
(5) CCCCOC(=O)N1CCN(C(=O)[C@H](CP(=O)(O)O)NC(=O)c2csc(-c3ccccc3)n2)CC1
Arrange the 5 molecules by rising IC50, starting with the smallest. Respond with an ordered listing of the labels, as requested.
5, 4, 1, 2, 3

(1) CCCCOC(=O)N1CCN(C(=O)CNC(=O)c2nc(-c3ccccc3)sc2CCCOC)CC1
(2) CCCCOC(=O)N1CCN(C(=O)CNC(=O)c2nc(-c3ccccc3)sc2NCCCO)CC1
Sorting ascending by IC50, which comes first: 1 or 2 ? Mark your answer with the label of the selected entry.
2
(2: 34 nM, 1: 99 nM)

(A) CCCCOC(=O)N1CCN(C(=O)[C@H](CCC(=O)O)NC(=O)c2nc(-c3ccccc3)sc2/C=C/C(=O)O)CC1
(B) CCCCOC(=O)N1CCN(C(=O)[C@H](CO)NC(=O)c2nc(-c3ccccc3)sc2Br)CC1
Which record would sort first by descending IC50, A or B ? Mark your answer with the label of the selected entry.
B
